These data points were gathered from patent US4784944A.

Each entry below carries its reported Difference in extinction (hydrolysis of chromogenic substrate).
- Tested on: Thromboplastin B
- assay.info: Hydrolysis of chromogenic substrates by thromboplastin B
- Assay type: biochemical
- test.context: Thromboplastin B 5%; substrate 50 μmol/l; after 92 hours at room temperature; 405 nm
- Description: Difference in extinction after 92 hours at room temperature of a reagent prepared according to Example 1. The substrate concentration was 50 μmol/l, and the thromboplastins were dissolved in accordance with the statements of the manufacturer and added at a concentration of 5%. […]
Starred links: 1 amine or outer side, 2 acyl side, 3 side chain; linkers in the order of their positions; H or OH if unused. Non-standard residues stand in square brackets, D forms with d. Residues, ends and D or L forms follow the SMILES beside them. *: point of attachment. Benzoyl(5-NH,2-NO2) = O=C(c1cc(N[*:1])ccc1[N+](=O)[O-])[*:2]; pNA = O=[N+]([O-])c1ccc(N*)cc1; Tos = Cc1ccc(S(=O)(=O)*)cc1
measurement.type: Difference in extinction (hydrolysis of chromogenic substrate)

compound	result
CC(C)(C)CNC(=O)c1cc(NC(=O)[C@H](CCCNC(=N)N)NC(=O)[C@@H]2CCCN2C(=O)[C@H](N)Cc2ccccc2)ccc1[N+](=O)[O-] [D-Phe-Pro-Arg-ANBA-neopentylamide]	0,009
Cc1ccc(S(=O)(=O)NCC(=O)N2CCC[C@H]2C(=O)N[C@@H](CCCNC(=N)N)C(=O)Nc2ccc([N+](=O)[O-])cc2)cc1 [Tos-Gly-Pro-Arg-pNA, reference compound] (Tos-Gly-Pro-Arg-pNA)	0,143
CCOC(=O)CNC(=O)c1cc(NC(=O)[C@H](CCCNC(=N)N)NC(=O)[C@@H]2CCCN2C(=O)[C@H](N)Cc2ccccc2)ccc1[N+](=O)[O-] [D-Phe-Pro-Arg-ANBA-Glycine ethyl ester] (H-[dF]PR[Benzoyl(5-NH,2-NO2)]G-OEt)	0,009
